Target: rice enzyme (sucrose-synthase)
Test: Kinetics (Vmax, Km) of the splitting reaction
Settings: with 0.9 mU enzyme; sucrose 500 mM, pH 6.5, 30° C.; read-out: substrate excess inhibition Ki(S)
readout.type: Ki
Please give the number followed by its unit.

Quick check: Ki of O=c1ccn([C@@H]2O[C@H](COP(=O)(O)OP(=O)(O)O)[C@@H](O)[C@H]2O)c(=O)[nH]1 [UDP] ? 16 mM
